Assay: Cmax in CD rat at 300 mg/kg by LC/MS/MS analysis
Assay type: ADME, organism-based
Parameters: dose 300 mg/kg
Conditions: in vivo
ENDPOINT NAME: Cmax (ng/mL)

a = Fc1cccc(-c2nc3cnn(Cc4cc(-c5ccc(C(F)(F)F)cc5C(F)(F)F)no4)cc-3n2)c1F
b = Fc1cccc(-c2nc3cnn(Cc4ccc(-c5ccc(C(F)(F)F)cc5C(F)(F)F)nc4)cc-3n2)c1F
Query block: # query: argmin of Cmax over a and b // respond with label for picked entry
Result block: a
(a: 2900 ng/mL, b: 27300 ng/mL)

---

Assay: Clearance in beagle dog at 1 mg/kg, iv by LC/MS/MS analysis
Type: ADME, organism-based, Canis lupus familiaris
Design: dose 1 mg/kg, route intravenous
Details: in vivo
ENDPOINT NAME: clearance (mL/min/kg)
Numbers only here, please. The scale is mL/min/kg.

Query block: Name the recorded clearance for `Fc1cccc(-c2nc3cnn(Cc4cc(-c5ccc(C(F)(F)F)cc5C(F)(F)F)no4)cc-3n2)c1F` .
Result block: 2.7

---

Assay: Cytotoxicity against human HuH7 cells after 48 hrs by WST assay
Assay type: cell-based, Huh-7
ENDPOINT NAME: CC50 at 48 h

Query block: Form field: reported CC50 at 48 h of `Fc1cccc(-c2nc3cnn(Cc4cc(-c5ccc(C(F)(F)F)cc5C(F)(F)F)no4)cc-3n2)c1F`
Result block: > 50 µM

---

Assay: Cmax in CD rat at 10 mg/kg by LC/MS/MS analysis
Assay type: ADME, organism-based
Design: dose 10 mg/kg
Details: in vivo
ENDPOINT NAME: Cmax (ng/mL)

• Fc1cccc(-c2nc3cnn(Cc4ccc(-c5ccc(C(F)(F)F)cc5C(F)(F)F)nc4)cc-3n2)c1F = 2700
• Fc1cccc(-c2nc3cnn(Cc4cc(-c5ccc(C(F)(F)F)cc5C(F)(F)F)no4)cc-3n2)c1F = 1900

---

Assay: Intrinsic clearance in CD rat microsomes
Type: ADME, Microsome
ENDPOINT NAME: CLint scaled (mL/min/kg)
Response body: numeric value in mL/min/kg, unit text excluded.

Query block: Which CLint scaled is reported for this molecule? `Fc1cccc(-c2nc3cnn(Cc4ccc(-c5ccc(C(F)(F)F)cc5C(F)(F)F)nc4)cc-3n2)c1F`
Result block: 22

---

Assay: Plasma protein binding in human at 5 uM after 4 hrs by rapid equilibrium dialysis technique
Type: ADME, cell-free
Settings: read-out: PPB (converted)
ENDPOINT NAME: fraction unbound at 4 h, 5 µM
Quick one: just the number, no unit, thanks!

Query block: Field request: fraction unbound at 4 h, 5 µM | item: `Fc1cccc(-c2nc3cnn(Cc4cc(-c5ccc(C(F)(F)F)cc5C(F)(F)F)no4)cc-3n2)c1F`
Result block: 0.002

---

Experiment: Oral bioavailability in CD rat at 5 mg/kg by LC/MS/MS analysis
Assay type: ADME, organism-based
Conditions: in vivo
ENDPOINT NAME: bioavailability (%)

* CCCOc1ccc(-c2cc(C(C(=O)OC)n3cc4nc(-c5cccc(F)c5F)nc-4cn3)on2)c(C(F)(F)F)c1 (centres undefined) | 80
* CCCOc1ccc(-c2cc(C(C(=O)OCCOCCO)n3cc4nc(-c5cccc(F)c5F)nc-4cn3)on2)c(C(F)(F)F)c1 (centres undefined) | 98

I = CCCOc1ccc(-c2cc(Cn3cc4nc(-c5cccc(F)c5F)nc-4cn3)on2)c(C(F)(F)F)c1
II = CCCOc1ccc(-c2cc(C(C(=O)OCCCO)n3cc4nc(-c5cccc(F)c5F)nc-4cn3)on2)c(C(F)(F)F)c1 (centres undefined)
Query block: Hi, I'm comparing I with II and wondering which one has the bigger number for bioavailability. Any idea? Lab note: record the label of whichever item you select.
Result block: II
(II: 91%, I: 33%)

---

Experiment: Oral bioavailability in CD rat at 1 mg/kg by LC/MS/MS analysis
Assay type: ADME, organism-based
Conditions: in vivo
ENDPOINT NAME: bioavailability (%)

• Fc1cccc(-c2nc3cnn(Cc4ccc(-c5ccc(C(F)(F)F)cc5C(F)(F)F)nc4)cc-3n2)c1F = 78
• Fc1cccc(-c2nc3cnn(Cc4cc(-c5ccc(C(F)(F)F)cc5C(F)(F)F)no4)cc-3n2)c1F = 109

---

Experiment: Half life in beagle dog at 1 mg/kg, iv by LC/MS/MS analysis
Type: ADME, organism-based, Canis lupus familiaris
Design: dose 1 mg/kg, route intravenous
Details: in vivo
ENDPOINT NAME: half-life (h)
Record the value in h, omitting the unit from your answer.

Query block: What half-life value was documented for this compound, `Fc1cccc(-c2nc3cnn(Cc4cc(-c5ccc(C(F)(F)F)cc5C(F)(F)F)no4)cc-3n2)c1F` ?
Result block: 6.9

---

Assay: Solubility of the compound in phosphate buffered saline at pH 7.4 after 1 hr by chemiluminescence nitrogen detection assay
Type: physicochemical
ENDPOINT NAME: solubility kinetic at 1 h (µM)

Solved entries:
* CCCOc1ccc(-c2cc(C(C(=O)OCCOCCO)n3cc4nc(-c5cccc(F)c5F)nc-4cn3)on2)c(C(F)(F)F)c1 (centres undefined) | 24
* CCCOc1ccc(-c2cc(C(C(=O)OCCCO)n3cc4nc(-c5cccc(F)c5F)nc-4cn3)on2)c(C(F)(F)F)c1 (centres undefined) | 14

P = CCCOc1ccc(-c2cc(Cn3cc4nc(-c5cccc(F)c5F)nc-4cn3)on2)c(C(F)(F)F)c1
Q = CCCOc1ccc(-c2cc(C(C(=O)OC)n3cc4nc(-c5cccc(F)c5F)nc-4cn3)on2)c(C(F)(F)F)c1 (centres undefined)
Query block: Please choose the item with the lower solubility kinetic at 1 h value from this pair: P and Q Mark your selection by writing its label.
Result block: P

---

Assay: Aqueous solubility of the compound at pH 6.8
Assay type: physicochemical
ENDPOINT NAME: solubility

Query block: Any idea what its solubility is? The compound is `Fc1cccc(-c2nc3cnn(Cc4cc(-c5ccc(C(F)(F)F)cc5C(F)(F)F)no4)cc-3n2)c1F`
Result block: < 0.01 µg/mL

---

Experiment: Volume of distribution in beagle dog at 1 mg/kg, iv by LC/MS/MS analysis
Assay type: ADME, organism-based, Canis lupus familiaris
Design: dose 1 mg/kg, route intravenous
Conditions: in vivo
ENDPOINT NAME: Vd (L/kg)
Number only, in L/kg; omit the unit.

Query block: Query (molecule): `Fc1cccc(-c2nc3cnn(Cc4cc(-c5ccc(C(F)(F)F)cc5C(F)(F)F)no4)cc-3n2)c1F` ; field requested: Vd
Result block: 0.83

---

Experiment: Oral bioavailability in beagle dog at 1 mg/kg by LC/MS/MS analysis
Format: ADME, organism-based, Canis lupus familiaris
Settings: in vivo
ENDPOINT NAME: bioavailability (%)
Use % as the unit, but write only the number.

Query block: Recorded bioavailability of `Fc1cccc(-c2nc3cnn(Cc4cc(-c5ccc(C(F)(F)F)cc5C(F)(F)F)no4)cc-3n2)c1F` , please.
Result block: 18.8

---

Assay: AUC in beagle dog at 1 mg/kg, po by LC/MS/MS analysis
Type: ADME, organism-based, Canis lupus familiaris
Design: dose 1 mg/kg, route oral
Conditions: plasma
ENDPOINT NAME: AUC (ng·h/mL)
Give your result in ng·h/mL as a bare value.

Query block: What does the record list as AUC for `Fc1cccc(-c2nc3cnn(Cc4cc(-c5ccc(C(F)(F)F)cc5C(F)(F)F)no4)cc-3n2)c1F` ?
Result block: 2000

---

Test: AUC in CD rat at 10 mg/kg by LC/MS/MS analysis
Assay type: ADME, organism-based
Design: dose 10 mg/kg
Settings: plasma
ENDPOINT NAME: AUC (ng·h/mL)

- Fc1cccc(-c2nc3cnn(Cc4ccc(-c5ccc(C(F)(F)F)cc5C(F)(F)F)nc4)cc-3n2)c1F: 24000
- Fc1cccc(-c2nc3cnn(Cc4cc(-c5ccc(C(F)(F)F)cc5C(F)(F)F)no4)cc-3n2)c1F: 25000

---

Molecular target: Voltage-gated inwardly rectifying potassium channel KCNH2 (Homo sapiens, UniProt Q12809)
Sequence (Q12809 whole entry): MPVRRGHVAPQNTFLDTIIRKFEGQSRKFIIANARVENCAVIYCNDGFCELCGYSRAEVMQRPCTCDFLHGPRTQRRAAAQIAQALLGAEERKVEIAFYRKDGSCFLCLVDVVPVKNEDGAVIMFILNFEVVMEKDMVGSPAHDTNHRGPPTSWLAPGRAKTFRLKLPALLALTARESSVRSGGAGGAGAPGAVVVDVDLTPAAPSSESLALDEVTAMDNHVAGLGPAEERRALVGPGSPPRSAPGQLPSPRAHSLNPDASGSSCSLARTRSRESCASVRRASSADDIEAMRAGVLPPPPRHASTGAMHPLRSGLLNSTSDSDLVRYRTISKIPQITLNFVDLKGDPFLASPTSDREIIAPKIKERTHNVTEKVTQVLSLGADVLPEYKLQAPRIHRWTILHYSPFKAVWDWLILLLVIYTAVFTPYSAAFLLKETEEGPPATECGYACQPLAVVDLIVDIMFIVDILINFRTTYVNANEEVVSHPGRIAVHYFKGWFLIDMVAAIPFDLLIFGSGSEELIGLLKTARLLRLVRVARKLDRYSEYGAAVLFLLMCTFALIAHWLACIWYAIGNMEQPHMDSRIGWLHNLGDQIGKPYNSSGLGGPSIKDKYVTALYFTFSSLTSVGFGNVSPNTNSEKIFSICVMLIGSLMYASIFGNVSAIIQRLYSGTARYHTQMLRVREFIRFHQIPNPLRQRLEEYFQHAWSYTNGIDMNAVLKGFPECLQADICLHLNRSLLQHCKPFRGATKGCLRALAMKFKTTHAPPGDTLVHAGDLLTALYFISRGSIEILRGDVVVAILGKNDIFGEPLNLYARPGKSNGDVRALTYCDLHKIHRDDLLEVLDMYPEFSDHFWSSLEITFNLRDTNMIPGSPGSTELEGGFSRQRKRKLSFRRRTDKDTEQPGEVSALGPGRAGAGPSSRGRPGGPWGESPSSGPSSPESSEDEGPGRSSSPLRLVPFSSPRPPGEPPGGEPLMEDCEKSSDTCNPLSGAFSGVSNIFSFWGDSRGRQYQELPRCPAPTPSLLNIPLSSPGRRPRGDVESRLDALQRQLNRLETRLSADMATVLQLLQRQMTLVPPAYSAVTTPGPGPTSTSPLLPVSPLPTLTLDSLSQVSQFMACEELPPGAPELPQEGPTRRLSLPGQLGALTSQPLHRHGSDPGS
Test: Inhibition of human ERG by patch-clamp technique
ENDPOINT NAME: pEC50
Please treat pEC50 as minus the base-10 logarithm of the molar concentration.

Query block: Looking for the measured pEC50 of `Fc1cccc(-c2nc3cnn(Cc4ccc(-c5ccc(C(F)(F)F)cc5C(F)(F)F)nc4)cc-3n2)c1F` , can you help?
Result block: 5.10

---

Target: Voltage-gated inwardly rectifying potassium channel KCNH2 (Homo sapiens, UniProt Q12809)
Assay: Inhibition of human ERG expressed in HEK293 cells
Assay type: cell-based
ENDPOINT NAME: IC50

Query block: Any idea what IC50 was measured for `Fc1cccc(-c2nc3cnn(Cc4cc(-c5ccc(C(F)(F)F)cc5C(F)(F)F)no4)cc-3n2)c1F` ?
Result block: > 50.1 µM
